# Lookup of reported IC50 keyed by entry
# SYSTEM_TESTED: GST-tagged KRAS-G12D (2-169) (Homo sapiens, UniProt P01116, G12D)
# Sequence (P01116 2-169 isoform P01116-2 G12D): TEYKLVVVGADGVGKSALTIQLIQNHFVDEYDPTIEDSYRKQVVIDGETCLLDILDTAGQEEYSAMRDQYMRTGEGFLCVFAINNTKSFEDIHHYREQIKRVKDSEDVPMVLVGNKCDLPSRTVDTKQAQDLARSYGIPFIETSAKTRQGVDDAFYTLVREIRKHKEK
# PROCEDURE_TEXT: Nucleotide exchange assay (NEA), SOS-mediated, HTRF, KRAS G12D
# Assay type: biochemical
# CONDITION_INFO: Table 4; IC50 extracted at 30 min; 20 nM SOScat; read-out: NEA G12D IC50

>  <COMPOUND>
CC1(NC#N)CCCN(c2nc(OC[C@@]34CCCN3C[C@H](F)C4)nc(N3CC4(CCc5sc(N)c(C#N)c54)C3)n2)C1 (stereo partly drawn) [Compound 52]

>  <IC50>
10 to 100 nM

$$$$
>  <COMPOUND>
CC1(C#N)CCCCN(c2nc(OC[C@@]34CCCN3C[C@H](F)C4)nc(N3CC4(CCc5sc(N)c(C#N)c54)C3)n2)C1 (stereo partly drawn) [Compound 111]

>  <IC50>
< 10 nM

$$$$
>  <COMPOUND>
CC1(O)CCCN(c2nc(OCC34CCCN3C(COc3cc(C(F)(F)F)ncn3)CC4)nc(N3CC4(C3)SCc3sc(N)c(C#N)c34)n2)C1 (single isomer, unassigned) [Compound 256B]

>  <IC50>
< 10 nM

$$$$
>  <COMPOUND>
CCN(c1nc(OC[C@@]23CCCN2C[C@H](F)C3)nc(N2CC3(C2)SCc2sc(N)c(C#N)c23)n1)[C@H](C)c1cccnc1N [Compound 139A]

>  <IC50>
< 10 nM

$$$$
>  <COMPOUND>
N#Cc1c(N)sc2c1C1(CC2)CN(c2nc(OCC3(C#N)CC3)nc(OCC3(CN4CCOCC4)CC3)n2)C1 [Compound 38]

>  <IC50>
10 to 100 nM

$$$$
>  <COMPOUND>
CC(c1ccnn1C)N(C)c1nc(OC[C@@]23CCCN2C[C@H](F)C3)nc(N2CC3(CCc4sc(N)c(C#N)c43)C2)n1 (stereo partly drawn) [Compound 125]

>  <IC50>
1000 to 20000 nM

$$$$
>  <COMPOUND>
CCN(c1nc(OC[C@@]23CCCN2C[C@H](F)C3)nc(N2CC3(C2)SCc2sc(N)c(C#N)c23)n1)C(C)c1nccnc1N (single isomer, unassigned) [Compound 168B]

>  <IC50>
10 to 100 nM

$$$$
>  <COMPOUND>
N#Cc1c(N)sc2c1C1(CC2)CN(c2nc(OC[C@@]34CCCN3C[C@H](F)C4)nc(N(CCO)Cc3c(F)ccnc3N)n2)C1 [Compound 154]

>  <IC50>
10 to 100 nM

$$$$
>  <COMPOUND>
CC(c1cccnc1N)N(C)c1nc(OC[C@@]23CCCN2C[C@H](F)C3)nc(N2CC3(CCc4sc(N)c(C#N)c43)C2)n1 (stereo partly drawn) [Compound 83]

>  <IC50>
< 10 nM

$$$$
>  <COMPOUND>
N#Cc1c(N)sc2c1C1(CC2)CN(c2nc(OC[C@@]34CCCN3C[C@H](F)C4)nc(N3CCc4noc(N)c4C3)n2)C1 [Compound 31]

>  <IC50>
10 to 100 nM

$$$$
>  <COMPOUND>
C[C@H](c1cccnc1N)N(CC(F)F)c1nc(OCC2(CN(C)C)CC2(F)F)nc(N2CC3(C2)SCc2sc(N)c(C#N)c23)n1 (stereo partly drawn) [Compound 220]

>  <IC50>
< 10 nM

$$$$
>  <COMPOUND>
C[C@H](c1cccnc1N)N(CCC#N)c1nc(OCC2(CN3CCOCC3)CC2)nc(N2CC3(C2)SCc2sc(N)c(C#N)c23)n1 [Compound 148]

>  <IC50>
< 10 nM

$$$$
